- System Under Test: mu opiate receptor (MOR) (Rattus norvegicus, UniProt P33535)
- Construct: from tissue; host or cells: rat striatal membrane preparation
- Sequence (P33535 whole entry): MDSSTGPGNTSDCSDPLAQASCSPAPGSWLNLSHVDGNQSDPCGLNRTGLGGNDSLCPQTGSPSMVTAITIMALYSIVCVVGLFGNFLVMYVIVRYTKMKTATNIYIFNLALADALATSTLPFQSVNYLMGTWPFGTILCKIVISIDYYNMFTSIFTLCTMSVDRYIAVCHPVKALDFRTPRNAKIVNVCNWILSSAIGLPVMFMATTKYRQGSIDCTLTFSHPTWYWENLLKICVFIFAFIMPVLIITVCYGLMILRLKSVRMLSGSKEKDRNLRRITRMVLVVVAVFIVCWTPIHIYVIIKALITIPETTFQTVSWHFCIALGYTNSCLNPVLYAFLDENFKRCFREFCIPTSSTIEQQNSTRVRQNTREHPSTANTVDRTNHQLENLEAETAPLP
- Test Name: MOR agonist activity using [35S]GTPγS binding assay in striatal membranes
- Type: biochemical
- Particulars: 1 μM compound, striatal membranes
Property Measured: MOR agonist activity, [35S]GTPγS binding to Gαo, FLNA-binding compound as agonist 1 μM (%)
Only the number, expressed in %, is required.

Sample records with MOR agonist activity, [35S]GTPγS binding to Gαo, FLNA-binding compound as agonist 1 μM:
CC(=O)Nc1ccc(S(=O)(=O)N2CCC3(CC2)OCCN3S(=O)(=O)c2ccc(NC(C)=O)cc2)cc1 [Compound C0013] | 301.2
Cc1ccccc1S(=O)(=O)N1CCC2(CC1)OCCN2S(=O)(=O)c1ccccc1C [Compound C0015] | 204.7
CNc1ccc(S(=O)(=O)N2CCC3(CC2)OCCN3S(=O)(=O)c2ccc(NC)cc2)cc1 [Compound C0024] | 229.6
COc1cccc(S(=O)(=O)N2CCC3(CC2)OCCN3S(=O)(=O)c2cccc(OC)c2)c1 [Compound C0002] | 93.8
COc1ccc(S(=O)(=O)N2CCC3(CC2)OCCN3S(=O)(=O)c2ccc(OC)c(OC)c2)cc1OC [Compound C0049] | 210.0

[Q] Which MOR agonist activity, [35S]GTPγS binding to Gαo, FLNA-binding compound as agonist 1 μM value is on record for C[C@@H](NC(=O)[C@@H](N)Cc1ccc(O)cc1)C(=O)NCC(=O)N(C)[C@@H](Cc1ccccc1)C(=O)NCCO [DAMGO, reference compound] ?
[A] 266.1

[Q] Which MOR agonist activity, [35S]GTPγS binding to Gαo, FLNA-binding compound as agonist 1 μM value is on record for O=S(=O)(c1ccc(F)c(F)c1)N1CCC2(CC1)OCCN2S(=O)(=O)c1ccc(F)c(F)c1 [Compound C0072] ?
[A] 259.1

###

- System Under Test: mu opiate receptor (MOR) (Rattus norvegicus)
- Construct: from tissue; host or cells: rat striatal membrane preparation
- Test Name: MOR agonist activity using [35S]GTPγS binding assay in striatal membranes
- Assay type: biochemical
- Particulars: 1 μM compound, striatal membranes
Property Measured: MOR agonist activity, [35S]GTPγS binding to Gαo, FLNA-binding compound as agonist 1 μM (%)
Only the number, expressed in %, is required.

Sample records with MOR agonist activity, [35S]GTPγS binding to Gαo, FLNA-binding compound as agonist 1 μM:
CC(=O)c1ccc(S(=O)(=O)N2CCC3(CC2)NC(=O)CN3S(=O)(=O)c2ccc(C(C)=O)cc2)cc1 [Compound C0064] | 349.6
O=C1CN(Cc2ccccc2)C2(CCN(S(=O)(=O)c3cc(Cl)c(O)c(Cl)c3)CC2)N1 [Compound C0139M] | 206.6
O=S(=O)(c1ccc(Br)cc1)N1CCC2(CC1)OCCN2S(=O)(=O)c1ccc(Br)cc1 [Compound C0025] | 320.7
Cc1cccc(S(=O)(=O)N2CCC3(CC2)OCCN3S(=O)(=O)c2cccc(C)c2)c1 [Compound C0014] | 153.5

[Q] Which MOR agonist activity, [35S]GTPγS binding to Gαo, FLNA-binding compound as agonist 1 μM value is on record for O=S(=O)(c1ccc(Br)cc1F)N1CCC2(CC1)OCCN2S(=O)(=O)c1ccc(Br)cc1F [Compound C0078] ?
[A] 236.6

[Q] Which MOR agonist activity, [35S]GTPγS binding to Gαo, FLNA-binding compound as agonist 1 μM value is on record for O=S(=O)(c1ccc(Oc2ccccc2)cc1)N1CCC2(CC1)OCCN2S(=O)(=O)c1ccc(Oc2ccccc2)cc1 [Compound C0149M] ?
[A] 406.7

[Q] Which MOR agonist activity, [35S]GTPγS binding to Gαo, FLNA-binding compound as agonist 1 μM value is on record for COc1ccc(C(=O)N2CCC3(CC2)OCCN3C(=O)c2ccc(OC)cc2)cc1 [Compound C0017] ?
[A] 284.5
